Please provide measured Human AmyR3 potency [EC50 (pM)] for the entries that follow.
- Tested target: T1, human amylin-3 (a) receptor (human, UniProt P30988 25-474; O60896 24-148)
- T1 sequence (looked up) 1: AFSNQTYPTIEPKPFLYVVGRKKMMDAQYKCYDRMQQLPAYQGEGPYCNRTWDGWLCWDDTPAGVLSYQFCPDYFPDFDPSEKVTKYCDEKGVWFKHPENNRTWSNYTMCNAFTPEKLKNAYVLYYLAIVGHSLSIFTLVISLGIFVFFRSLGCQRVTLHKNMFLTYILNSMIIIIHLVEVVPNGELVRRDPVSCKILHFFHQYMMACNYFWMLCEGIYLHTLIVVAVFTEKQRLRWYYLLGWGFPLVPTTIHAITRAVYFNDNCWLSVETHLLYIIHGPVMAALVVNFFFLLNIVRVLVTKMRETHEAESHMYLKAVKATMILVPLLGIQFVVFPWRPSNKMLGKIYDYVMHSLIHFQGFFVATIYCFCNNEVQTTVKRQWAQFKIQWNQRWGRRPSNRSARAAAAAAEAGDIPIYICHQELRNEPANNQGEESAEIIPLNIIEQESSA
- T1 sequence (looked up) 2: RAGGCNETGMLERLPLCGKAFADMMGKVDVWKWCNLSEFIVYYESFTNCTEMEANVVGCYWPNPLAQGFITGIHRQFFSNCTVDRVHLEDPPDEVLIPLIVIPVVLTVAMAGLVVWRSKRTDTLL
- Test details: cell-based or functional assay
Starred links: 1 amine or outer side, 2 acyl side, 3 side chain; linkers in the order of their positions; H or OH if unused. Non-standard residues stand in square brackets, D forms with d. Groups on a side chain read outwards from the residue. *: point of attachment. C20 diacid = O=C(O)CCCCCCCCCCCCCCCCCCC(=O)*; C18 diacid = O=C(O)CCCCCCCCCCCCCCCCC(=O)*; C16 diacid = O=C(O)CCCCCCCCCCCCCCC(=O)*; γGlu = O=C(O)[C@H](CCC(=O)[*:2])N[*:1]; Desaminohistidyl = O=C(CCc1c[nH]cn1)*; AEEA = NCCOCCOCC(=O)O; Aib = CC(C)(N)C(=O)O; Ahx = NCCCCCC(=O)O
Please provide the amount together with its unit, number first.

Please give Human AmyR3 potency [EC50 (pM)], item by item, for the list that follows.
1. Compound 0142 (peptide) peptide: [Desaminohistidyl][Aib]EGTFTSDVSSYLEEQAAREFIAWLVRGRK([γGlu-C20 diacid])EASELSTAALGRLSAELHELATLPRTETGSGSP-NH2
2. Compound 0191 (peptide) peptide: H[Aib]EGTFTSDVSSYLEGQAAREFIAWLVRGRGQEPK([AEEA-AEEA-γGlu-C18 diacid])GQAPASRLSTEALGRLSAELHELATLPRTETGSGSP-NH2
3. Compound 0483 (peptide) peptide: H[Aib]EGTFTSDVSK([AEEA-AEEA-γGlu-C16 diacid])YLEEQAVREFIAK([AEEA-AEEA-γGlu-C16 diacid])LVRGRGGGEASELSTAALGRLSAELHELATLPRTETGSGSP-NH2
4. Compound 0630 (peptide) peptide: H[Aib]EGTFTSDVSK([Ahx-γGlu-γGlu-C16 diacid])YLEEQAARK([Ahx-γGlu-γGlu-C16 diacid])FIEWLVRGAAEASELSTAALGRLSAELHELATLPRTETGSGSP-NH2

Key:
15.4 pM
54.8 pM
36.8 pM
110 pM

These measurements were taken from patent US20260132182A1.
